Record form. Attribute: fold change of affinity. Fill in for each entry.
target: Human CD137 ECD (human)
Sequence (chain, as listed by the source limits assumed): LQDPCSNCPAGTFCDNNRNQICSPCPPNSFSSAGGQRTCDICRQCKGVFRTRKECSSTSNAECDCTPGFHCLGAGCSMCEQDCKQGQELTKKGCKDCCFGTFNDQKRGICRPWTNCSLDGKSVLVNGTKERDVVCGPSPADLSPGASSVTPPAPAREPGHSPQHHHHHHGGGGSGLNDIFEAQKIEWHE
assay: Biacore SPR, vs parent H183/L072
Answers are plain numbers, in fold.

binder="H183/L072 VL Y32D (antibody, name in Kabat numbering, V domains shown) VH: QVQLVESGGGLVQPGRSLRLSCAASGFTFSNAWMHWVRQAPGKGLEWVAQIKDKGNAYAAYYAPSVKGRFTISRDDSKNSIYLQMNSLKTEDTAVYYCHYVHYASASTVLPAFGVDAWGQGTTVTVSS VL: DIVMTQSPLSLPVTPGEPASISCQASQELVHMNRNTDLHWYQQKPGQAPRLLIYKVSNRFPGVPDRFSGSGSGTDFTLKISRVEAEDVGVYYCAQGTSVPFTFGQGTKLEIK" measurement_unit=fold value=0

Let's switch to this binder now.
Exercise: Give fold change of affinity for the following binder: H183/L072 VL H34A (antibody, name in Kabat numbering, V domains shown) VH: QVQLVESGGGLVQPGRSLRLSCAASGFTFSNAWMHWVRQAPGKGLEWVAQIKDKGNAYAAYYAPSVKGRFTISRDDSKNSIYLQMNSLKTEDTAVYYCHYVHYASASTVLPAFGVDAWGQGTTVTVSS VL: DIVMTQSPLSLPVTPGEPASISCQASQELVHMNRNTYLAWYQQKPGQAPRLLIYKVSNRFPGVPDRFSGSGSGTDFTLKISRVEAEDVGVYYCAQGTSVPFTFGQGTKLEIK
Key: 0

Ref: patent US20210388087A1
